Test: Cmax in mouse at 5 mg/kg, ip by LC-MS analysis
Assay type: ADME, organism-based
Parameters: dose 5 mg/kg, route intraperitoneal
Conditions: in vivo
What Cmax was measured for each of the following?
Numbers only, in µM.

{"columns": ["sample.smiles", "endpoint.label", "value.reported"],
 "data": [
  ["Cc1c(CC(=O)O)c(=O)oc2c(C)c(OCc3cccc(C(F)(F)F)c3)ccc12", "Cmax", 70.2]
]}

Sure, the documented Cmax for `Cc1c(CC(=O)O)c(=O)oc2c(C)c(OCc3cccc(Br)c3)ccc12` is 24.3

###

Experiment: AUC in mouse at 10 mg/kg, ip by LC-MS analysis
Format: ADME, organism-based
Settings: in vivo
endpoint.label: AUC (µM·h)
Numbers only, in µM·h.

Form: compound = `Cc1c(CC(=O)O)c(=O)oc2c(C)c(OCc3cccc(I)c3)ccc12` ; AUC = 331

###

Assay: Cmax in mouse at 10 mg/kg, po by LC-MS analysis
Type: ADME, organism-based
Parameters: dose 10 mg/kg, route oral
Conditions: in vivo
endpoint.label: Cmax (µM)
One number for each entry, in µM.

Lab note: `Cc1c(CC(=O)O)c(=O)oc2c(C)c(OCc3cccc(I)c3)ccc12` gave Cmax of 4.7

###

Experiment: Tmax in mouse at 10 mg/kg, ip by LC-MS analysis
Format: ADME, organism-based
Details: in vivo
endpoint.label: Tmax (min)
Numbers only, in min.

Form: molecule = `Cc1c(CC(=O)O)c(=O)oc2c(C)c(OCc3cccc(I)c3)ccc12` ; Tmax = 30

###

Assay: Tmax in mouse at 5 mg/kg, po by LC-MS analysis
Assay type: ADME, organism-based
Conditions: in vivo
endpoint.label: Tmax (h)
One number for each entry, in h.

{"columns": ["sample.smiles", "Tmax [h]"],
 "data": [
  ["Cc1c(CC(=O)O)c(=O)oc2c(C)c(OCc3cccc(Br)c3)ccc12", 5.8]
]}

Turning to the following compound.
Tmax reading for `Cc1c(CC(=O)O)c(=O)oc2c(C)c(OCc3cccc(C(F)(F)F)c3)ccc12` : 0.8

###

Experiment: Cmax in mouse at 10 mg/kg, ip by LC-MS analysis
Assay type: ADME, organism-based
Parameters: dose 10 mg/kg, route intraperitoneal
Conditions: in vivo
endpoint.label: Cmax (µM)
One number for each entry, in µM.

Value of measured Cmax for the entry `Cc1c(CC(=O)O)c(=O)oc2c(C)c(OCc3cccc(I)c3)ccc12` : 29.1

###

Assay: Drug level in mouse serum at 10 mg/kg, po or ip measured after 72 hrs by LC-MS analysis
Format: ADME, organism-based
Details: read-out: Drug uptake
endpoint.label: concentration at 72 h (nM)
Give bare numbers, in nM.

Noted for `Cc1c(CC(=O)O)c(=O)oc2c(C)c(OCc3cccc(I)c3)ccc12` : its concentration at 72 h reads 1000

###

Test: AUC in mouse at 5 mg/kg, po by LC-MS analysis
Assay type: ADME, organism-based
Settings: in vivo
I'd be grateful if you could share measured AUC for these entries.
Answer format reminder: number followed by unit.

{"columns": ["sample.smiles", "value.reported"],
 "data": [
  ["Cc1c(CC(=O)O)c(=O)oc2c(C)c(OCc3cccc(Br)c3)ccc12", "124 µM·h"]
]}

Proceeding to the next compound to report its AUC.
get_value(item= `Cc1c(CC(=O)O)c(=O)oc2c(C)c(OCc3cccc(C(F)(F)F)c3)ccc12` , readout=AUC) returns 69 µM·h

###

Please respond with reported IC50 for every item in the list.
Molecular target: Chloride anion exchanger (Mus musculus)
Sequence (Q9WVC8 whole entry): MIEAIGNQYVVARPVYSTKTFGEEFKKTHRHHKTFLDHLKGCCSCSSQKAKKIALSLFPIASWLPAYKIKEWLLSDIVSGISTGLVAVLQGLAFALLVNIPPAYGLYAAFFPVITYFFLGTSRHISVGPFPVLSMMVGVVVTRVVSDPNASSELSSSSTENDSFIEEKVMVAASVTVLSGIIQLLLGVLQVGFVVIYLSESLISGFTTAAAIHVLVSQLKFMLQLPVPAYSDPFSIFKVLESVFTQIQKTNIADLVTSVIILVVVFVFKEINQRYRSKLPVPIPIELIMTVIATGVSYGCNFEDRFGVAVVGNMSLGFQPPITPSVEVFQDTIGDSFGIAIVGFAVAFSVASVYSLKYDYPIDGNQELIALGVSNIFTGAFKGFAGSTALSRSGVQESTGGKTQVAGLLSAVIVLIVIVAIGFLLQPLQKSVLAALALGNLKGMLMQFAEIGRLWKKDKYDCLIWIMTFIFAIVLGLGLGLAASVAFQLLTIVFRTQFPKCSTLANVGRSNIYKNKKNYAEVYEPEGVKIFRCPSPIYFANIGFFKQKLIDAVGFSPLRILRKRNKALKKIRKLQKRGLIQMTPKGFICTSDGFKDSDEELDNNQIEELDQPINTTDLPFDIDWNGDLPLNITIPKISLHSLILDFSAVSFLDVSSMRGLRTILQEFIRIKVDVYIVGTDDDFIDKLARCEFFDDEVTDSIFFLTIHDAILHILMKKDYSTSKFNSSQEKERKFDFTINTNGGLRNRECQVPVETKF
Test: Inhibition of mouse slc26a3 expressed in FRT cells co-expressing EYFP-H148Q/I152L/F46L assessed as reduction in protein-mediated chloride/iodide exchange preincubated for 10 mins followed by NaI-substituted PBS addition and measured by YFP-based fluorescence assay
Type: cell-based
Numbers only, in µM.

Some solved cases for reference:
{"columns": ["sample.smiles", "unit.name", "value.reported"],
 "data": [
  ["Cc1c(CC(=O)O)c(=O)oc2c(C)c(OCc3cccc(F)c3)ccc12", "µM", 0.9],
  ["Cc1c(CC(=O)O)c(=O)oc2c(C)c(OCc3ccccc3Br)ccc12", "µM", 10],
  ["Cc1c(CC(=O)O)c(=O)oc2c(C)c(OCc3cccc(Cl)c3)ccc12", "µM", 1]
]}

// below: IC50 requested for another compound
Reported IC50 for `Cc1c(CC(=O)O)c(=O)oc2c(C)c(OCc3ccccc3Cl)ccc12` was 18

Numbers sourced from ChEMBL document CHEMBL4373708.
